system: A4-Fuk; assay: cells; assay type: functional, cell-based, Homo sapiens; details: Homo sapiens, A4-Fuk
Description: SANGER: Inhibition of human A4-Fuk cell growth in a cell viability assay.
pIC50 values, listed per item
pIC50 here: minus log base 10 of the concentration, concentration in moles per litre.

{"Compound smiles": "CC(=O)O[C@H]1C(=O)[C@@]2(C)[C@H]([C@H](OC(=O)c3ccccc3)[C@]3(O)C[C@H](OC(=O)[C@H](O)[C@@H](NC(=O)c4ccccc4)c4ccccc4)C(C)=C1C3(C)C)[C@]1(OC(C)=O)CO[C@@H]1C[C@@H]2O", "Endpoint": "pIC50", "Numeric readout": 8.21}
{"Compound smiles": "COc1cc2c(Nc3ccc(NC(=O)c4ccccc4)cc3)ncnc2cc1OCCCN1CCOCC1", "Endpoint": "pIC50", "Numeric readout": 5.42}

Then there is this compound:
Inquiry: Provide the reported pIC50 (system: A4-Fuk) for OCCCNc1cc(-c2ccnc(Nc3cccc(Cl)c3)n2)ccn1;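 further: growth inhibition of A4-Fuk cells, read out by a cell viability assay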
Reply text: 7.55

---

test system: NCI-H1703; assay: cells; assay type: functional, cell-based, Homo sapiens; details: Homo sapiens, NCI-H1703
Description: SANGER: Inhibition of human NCI-H1703 cell growth in a cell viability assay.
Endpoint: pIC50
Scale note: pIC50 = -log10(concentration in M).

{"Compound smiles": "Cc1cc([N+](=O)[O-])ccc1NS(=O)(=O)c1cc(Cl)ccc1Cl", "Endpoint": "pIC50", "Numeric readout": 5.48}

Inquiry: Please report pIC50 with NCI-H1703 for item CO[C@H]1C[C@@H]2CC[C@@H](C)[C@@](O)(O2)C(=O)C(=O)N2CCCC[C@H]2C(=O)O[C@H]([C@H](C)C[C@@H]2CC[C@@H](OC(=O)C(C)(CO)CO)[C@H](OC)C2)CC(=O)[C@H](C)/C=C(\C)[C@@H](O)[C@@H](OC)C(=O)[C@H](C)C[C@H](C)/C=C/C=C/C=C/1C .
Reply text: 7.63

Inquiry: # assay system NCI-H1703: give pIC50 of COc1cccc2c1C(=O)c1c(O)c3c(c(O)c1C2=O)C[C@@](O)(C(=O)CO)C[C@@H]3O[C@H]1C[C@H](N)[C@H](O)[C@H](C)O1;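 further: growth inhibition of NCI-H1703 cells, read out via a cell viability assay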
Reply text: 6.90

---

system: NCI-H661; test: cells; assay type: functional, cell-based, Homo sapiens; details: Homo sapiens, NCI-H661;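 further: cell viability assay read-out, IC50 being the concentration that inhibits growth of the cells by half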
Description: SANGER: Inhibition of human NCI-H661 cell growth in a cell viability assay.
Endpoint: IC50 (µM)
Please give a number only; it is taken to be in µM.

{"Compound": "CC(C)c1ccccc1Cc1cc(C(=O)Nc2ccc(S(=O)(=O)c3ccccc3C(C)(C)C)cc2)c(O)c(O)c1O", "IC50 (µM)": 0.202}

Inquiry: Read off the recorded IC50 for COc1cccc2c1C(=O)c1c(O)c3c(c(O)c1C2=O)C[C@@](O)(C(=O)CO)C[C@@H]3O[C@H]1C[C@H](N)[C@H](O)[C@H](C)O1 [DOXORUBICIN]
Reply text: 0.049

Inquiry: Provide only the value of recorded IC50 for CN(C)C(=N)NC(=N)N [METFORMIN]
Reply text: 4560

---

The reader will find reported IC50 values listed item by item below.
test system: HCC 2998; experiment: cells; type: functional, cell-based, Homo sapiens; details: Homo sapiens, HCC 2998;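 further: growth inhibition of human HCC2998 cells, measured with a cell viability read-out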
Description: SANGER: Inhibition of human HCC2998 cell growth in a cell viability assay.
Please state the figure in µM; there is no need to write the unit.

{"Compound smiles": "CC(C)c1ccccc1Cc1cc(C(=O)Nc2ccc(S(=O)(=O)c3ccccc3C(C)(C)C)cc2)c(O)c(O)c1O", "Numeric readout": 5.89}

Now for a further molecule.
Inquiry: Output IC50 of Cn1cnc2c(F)c(Nc3ccc(Br)cc3Cl)c(C(=O)NOCCO)cc21
Reply text: 0.269
